Would you mind telling me the reported IC50 of each entry?
target: Bifunctional 3'-5' exonuclease/ATP-dependent helicase WRN (Homo sapiens, UniProt Q14191); assay: Inhibition of WRN (unknown origin) ATPase activity
Sequence (Q14191 whole entry): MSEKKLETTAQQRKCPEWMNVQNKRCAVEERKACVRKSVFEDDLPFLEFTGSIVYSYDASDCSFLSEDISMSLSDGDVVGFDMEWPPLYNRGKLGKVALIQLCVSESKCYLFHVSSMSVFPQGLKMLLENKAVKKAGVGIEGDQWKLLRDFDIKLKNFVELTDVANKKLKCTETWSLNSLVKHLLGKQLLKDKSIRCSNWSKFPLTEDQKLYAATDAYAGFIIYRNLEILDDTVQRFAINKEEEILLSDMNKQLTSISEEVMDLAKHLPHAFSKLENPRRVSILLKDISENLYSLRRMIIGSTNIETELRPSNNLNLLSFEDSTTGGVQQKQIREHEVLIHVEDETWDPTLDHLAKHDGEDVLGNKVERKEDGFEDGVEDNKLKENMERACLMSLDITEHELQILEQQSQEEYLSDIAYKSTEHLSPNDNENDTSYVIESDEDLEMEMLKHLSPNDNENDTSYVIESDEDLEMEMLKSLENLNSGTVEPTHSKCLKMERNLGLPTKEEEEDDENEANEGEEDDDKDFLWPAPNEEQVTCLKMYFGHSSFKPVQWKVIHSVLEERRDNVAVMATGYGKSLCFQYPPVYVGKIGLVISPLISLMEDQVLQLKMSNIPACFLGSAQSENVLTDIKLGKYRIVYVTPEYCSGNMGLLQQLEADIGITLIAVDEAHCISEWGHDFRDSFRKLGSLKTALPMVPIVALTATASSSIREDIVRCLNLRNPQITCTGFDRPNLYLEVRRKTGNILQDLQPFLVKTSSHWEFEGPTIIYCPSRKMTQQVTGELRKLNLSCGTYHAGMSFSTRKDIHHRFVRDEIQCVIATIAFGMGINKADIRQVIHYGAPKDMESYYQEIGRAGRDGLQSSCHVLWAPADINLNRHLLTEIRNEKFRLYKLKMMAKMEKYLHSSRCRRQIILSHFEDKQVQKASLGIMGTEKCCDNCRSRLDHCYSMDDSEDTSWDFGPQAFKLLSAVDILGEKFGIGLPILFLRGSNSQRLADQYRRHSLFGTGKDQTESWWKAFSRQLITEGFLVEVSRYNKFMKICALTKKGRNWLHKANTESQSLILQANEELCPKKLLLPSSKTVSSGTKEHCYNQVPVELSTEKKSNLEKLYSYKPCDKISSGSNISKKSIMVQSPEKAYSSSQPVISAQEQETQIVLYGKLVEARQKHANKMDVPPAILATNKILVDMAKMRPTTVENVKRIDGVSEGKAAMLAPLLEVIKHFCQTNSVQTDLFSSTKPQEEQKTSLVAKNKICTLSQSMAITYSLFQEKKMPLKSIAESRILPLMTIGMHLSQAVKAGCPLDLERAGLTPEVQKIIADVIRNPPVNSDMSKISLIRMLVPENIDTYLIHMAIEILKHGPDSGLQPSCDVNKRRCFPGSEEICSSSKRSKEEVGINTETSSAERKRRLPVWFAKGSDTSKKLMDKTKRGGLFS
# number only, unit µM dropped from output

input: Form entry - test system: Bifunctional 3'-5' exonuclease/ATP-dependent helicase WRN (Homo sapiens, UniProt Q14191); read-out: IC50; compound: "CCC(=O)OCN1C(=O)C=CC1=O"
output: 10.4

input: Form entry - test system: Bifunctional 3'-5' exonuclease/ATP-dependent helicase WRN (Homo sapiens, UniProt Q14191); read-out: IC50; compound: "Cc1ccc(NC(=O)CN2C(=O)N/C(=C/c3ccccc3OCc3cccc(C(=O)O)c3)C2=O)cc1"
output: 15.8

input: Form entry - test system: Bifunctional 3'-5' exonuclease/ATP-dependent helicase WRN (Homo sapiens, UniProt Q14191); read-out: IC50; compound: "CC(C)(CN1C(=O)C(Cl)=C(Cl)C1=O)CN1C(=O)C(Cl)=C(Cl)C1=O"
output: 88.7

input: Form entry - test system: Bifunctional 3'-5' exonuclease/ATP-dependent helicase WRN (Homo sapiens, UniProt Q14191); read-out: IC50; compound: O=C1/C(=C2\Nc3ccc(S(=O)(=O)O)cc3C2=O)Nc2ccc(S(=O)(=O)O)cc21 [INDIGOTINDISULFONATE]
output: 5
